A collection of binders and their measured glycan array binding signal (z-score)
- experimentalTarget: Neu5Ac(a2-3)Gal(b1-4)GlcNAc(b1-2)Man
- measurementNotes: glycan array binding signal (z-score within array); higher = stronger binding
- conditionInfo: glycan notation: IUPAC condensed, linker removed
The entries come from a sample that favours the strongest signals as a whole.

{"binder": "BC2LB (Burholderia cenocepacia), B4EH85_BURCJ (protein) MGSSHHHHHHSSGENLYFQGHMSQPFTHDDLYALLQLAGNDATAVQANGDQAVLDRMRQFMTAQLVEKLPQYDVFVDIATIPYSFDVGSWQNKVKTDAAGEVVACTVTWAGAPGVLPGAAAKFGVGAVVNYFSKATPH", "glycan array binding signal (z-score)": 2.39}
{"binder": "LngA (Escherichia coli) (protein) MLSVYNRTQKFKAEARKKIAKYHELRKQRGMSLLEVIIVLGIIGTIAAGVVILAQRAFDSRAVTDLVTNTNTVRVRMKDAYQRDGKYPDFVDPLSLTANTIKTDTSGIPAAQLVQLGKITPDEVRNNISGDFIAIGGALTSNGAQVKKGFAIELNGLSQEQCRSILGQVGNNWEYVAIGTSASGSYAMTATGVDMSVAASTTVLRSLGNNGQTTLTADKILSTCTAQVNSITLGSR", "glycan array binding signal (z-score)": 3.6}
